# target.or.test.system: T1, human IL13Rα2 (interleukin-13 receptor subunit alpha-2) (human, UniProt Q14627 27-380)
# T1 construct: whole, on cells; also called IL13Ra2
# T1 sequence (looked up): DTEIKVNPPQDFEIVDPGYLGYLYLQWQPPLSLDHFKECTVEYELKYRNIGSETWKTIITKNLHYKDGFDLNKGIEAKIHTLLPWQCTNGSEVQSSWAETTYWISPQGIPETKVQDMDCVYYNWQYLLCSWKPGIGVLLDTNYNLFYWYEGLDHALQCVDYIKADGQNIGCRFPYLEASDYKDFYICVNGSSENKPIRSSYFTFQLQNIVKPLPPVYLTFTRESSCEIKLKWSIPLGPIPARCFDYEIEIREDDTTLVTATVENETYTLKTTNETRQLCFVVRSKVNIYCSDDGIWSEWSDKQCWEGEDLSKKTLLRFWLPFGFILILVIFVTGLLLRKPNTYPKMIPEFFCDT
# experiment.notes: flow cytometry of hybridoma supernatants on IL13Rα2-transfected 300.19 cells; specificity further validated on IL13Rα2-transfected COS cells and U251 cells
measured.property: binding result

* 46A murine anti-IL13Rα2 monoclonal antibody (antibody, V domains shown, Tested as hybridoma supernatant; also called IL13Rα2_46A; clone 46A) VH: QVQLKQSGPGLVQPSQSLSITCTVSGFSITKYGVHWVRLSPGKGLEWLGVIWSGGSTDYNAAFISRLNISKDNSKSQVFFKMNSLQANDTAIYYCARDFGDTMDYWGQGTSVTVSS VL: QIVLTQSPAIMSASLGERVTMTCTASSSVTSSYLHWYQQKPGSSPKLWIFSTSNLASGVPARFSGSGSGTSYSLTISSMEAEDAATYYCHQYHRSPLTFGAGTKLELK | binds
* 82B murine anti-IL13Rα2 monoclonal antibody (antibody, V domains shown, Tested as hybridoma supernatant; also called IL13Rα2_82B; clone 82B) VH: QVQLKQSGPGLVQPSQSLSITCTVSGFSLTSYGVHWVRQSPGKGLEWLGVIWSGGSTDYNAAFISRLSISKDNSKSQVFFKMNSLQANDTAIYYCARDRYDAFDYWGQGTTLTVSS VL: QIVLTQSPAIMSASLGERVTMTCTASSSVSSSYLHWYQQKPGSSPKLWIYSTSNLASGVPARFSGSGSGTSYSLTISSMEAEDAATYYCHQYHRSPLTFGAGTKLELK | binds
* 6A murine anti-IL13Rα2 monoclonal antibody (antibody, V domains shown, Tested as hybridoma supernatant; also called IL13Rα2_6A; clone 6A) VH: EVQLQQSGPELVKPGASVKISCKTSGYTFTEYTMHWVKQSHGKSLEWIGIINPNNGGTNYNQKFKGKATLTVDKSSSTAYMELRSLTSEDSAVYYCARPSATHYFDYWGQGTTLTVSS VL: DIKMTQSPSSMYASLGERVTITCKASQDIKSYLSWFQQKPGKSPKTLIYRANRLVDGVPSRFSGSGSGQDYSLTISSLEYEDMGIYYCLQYDEFPLTFGAGTKLELK | binds
